Data origin, for the record: ChEMBL document CHEMBL5518178

Test system: MGC-803
Experiment: Antiproliferative activity against human MGC-803 cells assessed as inhibition of cell growth incubated for 48 hrs by MTT assay
Assay type: functional, cell-based
Settings: MGC-803, 48 h
Consider the following molecules; for each one, report its log10 of IC50.
Plainly stated, the numbers are log10 of IC50 given in nM.

Query Smiles	log10 of IC50
COc1ccc2c(c1)CCCN2C(=O)c1cc2ccccc2oc1=O	3.62
O=c1cc(N2CCCc3cc(O)ccc32)c2ccccc2o1	2.94
O=C(c1cc2ccccc2oc1=O)N1CCc2cc(Br)ccc21	4.12

Below is a list of molecules. For each, state its recorded log10 of IC50.
1. Cc1ccc2c(c1)CCCN2c1cc(=O)oc2ccccc12
2. COc1ccc2c(c1)CCN2c1cc(=O)oc2ccccc12
3. O=c1cc(N2CCCc3cc(Br)ccc32)c2ccccc2o1
4. COc1cc2c(c(OC)c1OC)-c1ccc(OC)c(=O)cc1[C@@H](NC(C)=O)CC2
5. COc1ccc2c(c1)NC(=O)CN2c1cc(=O)oc2ccccc12
6. COc1ccc(N2CCN(c3cc(=O)oc4ccccc34)CC2)cc1
7. Cc1ccc2c(c1)CCN2c1cc(=O)oc2ccccc12
8. O=c1cc(N2CCc3ccccc32)c2ccccc2o1

2.62
2.08
3.08
1.61
1.08
4.26
3.32
3.11

Below is a list of molecules. For each, state its recorded log10 of IC50.
1. COc1ccc2c(c1)CCCN2c1cc(=O)oc2ccccc12
2. O=c1cc(N2CCCc3ccccc32)c2ccccc2o1
3. COc1ccc2c(c1)CCN2C(=O)c1cc2ccccc2oc1=O
4. O=C(c1cc2ccccc2oc1=O)N1CCCc2cc(Cl)ccc21

1: 1.53; 2: 2.83; 3: 3.87; 4: 4.00
